molecular target: Dihydroorotate dehydrogenase (Plasmodium falciparum, UniProt Q54A96)
Sequence (Q54A96 whole entry): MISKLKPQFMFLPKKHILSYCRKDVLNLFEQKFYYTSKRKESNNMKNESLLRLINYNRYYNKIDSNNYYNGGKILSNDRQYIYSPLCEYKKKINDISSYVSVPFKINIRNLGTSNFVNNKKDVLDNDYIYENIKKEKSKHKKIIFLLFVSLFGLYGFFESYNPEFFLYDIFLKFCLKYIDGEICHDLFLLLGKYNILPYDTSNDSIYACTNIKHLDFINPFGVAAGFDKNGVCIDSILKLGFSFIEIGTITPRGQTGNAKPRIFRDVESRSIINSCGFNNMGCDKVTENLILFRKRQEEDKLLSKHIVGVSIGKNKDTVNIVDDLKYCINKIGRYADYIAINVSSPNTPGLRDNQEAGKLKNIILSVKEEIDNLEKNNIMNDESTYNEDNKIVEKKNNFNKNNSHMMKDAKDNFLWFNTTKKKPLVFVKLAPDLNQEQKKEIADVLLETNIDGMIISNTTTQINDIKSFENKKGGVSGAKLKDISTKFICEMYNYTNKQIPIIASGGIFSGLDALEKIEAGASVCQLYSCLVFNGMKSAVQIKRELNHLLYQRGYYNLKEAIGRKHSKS
Measurement Label: IC50

[
  {
    "Record Smiles": "Cc1cc(N(Cc2ccccc2)c2ccc3ccccc3c2)n2ncnc2n1",
    "Result": "93000 nM"
  },
  {
    "Record Smiles": "Cc1cc(Nc2ccc3ncccc3c2)n2ncnc2n1",
    "Result": "1200 nM"
  },
  {
    "Record Smiles": "Cc1nc2ncnn2c(Nc2ccc3ccccc3c2)c1C",
    "Result": "160 nM"
  },
  {
    "Record Smiles": "Cc1cc(Nc2ccc3c(=O)cc(C)oc3c2)n2ncnc2n1",
    "Result": "2000 nM"
  },
  {
    "Record Smiles": "Cc1cc(Nc2ccc(C(N)=O)cc2)n2ncnc2n1",
    "Result": "> 200000 nM"
  },
  {
    "Record Smiles": "CCc1cc(Nc2ccc3ccccc3c2)n2ncnc2n1",
    "Result": "190 nM"
  },
  {
    "Record Smiles": "Cc1cc(N(C)c2ccc3ccccc3c2)n2ncnc2n1",
    "Result": "3000 nM"
  },
  {
    "Record Smiles": "Cc1cc(Nc2cccc3ccccc23)n2ncnc2n1",
    "Result": "45000 nM"
  },
  {
    "Record Smiles": "Cc1cc(Nc2ccc3cc4ccccc4cc3c2)n2ncnc2n1",
    "Result": "56 nM"
  }
]

###

test system: Plasmodium falciparum; test: Antiplasmodial activity against Plasmodium falciparum K1 in erythrocytes as [3H]hypoxanthine uptake; details: K1, 3 h

[
  {
    "Record Smiles": "Cc1cc(Nc2ccc3ccccc3c2)n2ncnc2n1",
    "System Tested": "Plasmodium falciparum",
    "EC50": "140 nM"
  }
]

###

tested on: L1210; assay: Cytotoxicity against mouse L1210 cells
Measurement Label: EC50

[
  {
    "Record Smiles": "Cc1cc(Nc2ccc3ccccc3c2)n2ncnc2n1",
    "Result": "> 10 µM"
  }
]

###

system: Plasmodium falciparum; assay: Antiplasmodial activity against Plasmodium falciparum D6 in erythrocytes as [3H]hypoxanthine uptake; settings: D6, 3 h
pEC50: −log10 of the molar value.

[
  {
    "Record Smiles": "Cc1cc(Nc2ccc3ccccc3c2)n2ncnc2n1",
    "System Tested": "Plasmodium falciparum",
    "pEC50": 7.24
  }
]

These measurements were taken from ChEMBL document CHEMBL1150779.
